Could you please report measured normalised growth rate inhibition for the items listed next?
- Test system: SKBR3
- assay_method_text: normalised growth rate inhibition (GR value) relative to DMSO control (GR (1 = untreated growth, 0 = cytostasis, <0 = cytotoxic)); higher = less growth inhibition
- condition_context: 10 µM; 72 h
Numbers only.

Some solved cases for reference:
molecule	normalised growth rate inhibition
NC1(c2ccc(-c3nc4ccn5c(=O)[nH]nc5c4cc3-c3ccccc3)cc2)CCC1 [MK-2206]	-0.0652
COc1cc2c(Oc3ccc(NC(=O)C4(C(=O)Nc5ccc(F)cc5)CC4)cc3F)ccnc2cc1OCCCN1CCOCC1 [foretinib]	-0.0967
COCC(=O)NC/C=C/c1ccc2ncnc(Nc3ccc(Oc4ccc(C)nc4)c(C)c3)c2c1	-0.0874
Cc1[nH]c(/C=C2\C(=O)Nc3ccc(S(=O)(=O)N(C)c4cccc(Cl)c4)cc32)c(C)c1C(=O)N1CCN(C)CC1	0.00625
CN(C)C/C=C/C(=O)Nc1cc2c(Nc3ccc(F)c(Cl)c3)ncnc2cc1O[C@H]1CCOC1 [afatinib]	-0.171
C=CC(=O)Nc1cc(-n2c(=O)ccc3cnc4ccc(-c5cn[nH]c5)cc4c32)ccc1C [QL-X-138]	-0.231
Cc1ncc(-c2ccnc(Nc3ccc(S(C)(=O)=O)cc3)n2)n1C(C)C [AZD-5438]	-0.453
C[C@@H]1C[C@H]2O[C@@H]2/C=C\C=C\C(=O)Cc2c(Cl)c(O)cc(O)c2C(=O)O1 [radicicol]	-0.166

Look at each molecule and report its normalised growth rate inhibition.
1. O=C(NOC[C@H](O)CO)c1ccc(F)c(F)c1Nc1ccc(I)cc1F
2. Nc1cccc(-c2cc3c(Oc4cccc(O)c4)ncnc3[nH]2)c1 [TWS-119]
3. CCOc1cc2ncc(C#N)c(Nc3ccc(F)c(Cl)c3)c2cc1NC(=O)/C=C/CN(C)C [pelitinib]

## Output
0.196
-0.212
-0.227

----------
- Tested on: MDAMB231
- assay_method_text: normalised growth rate inhibition (GR value) relative to DMSO control (GR (1 = untreated growth, 0 = cytostasis, <0 = cytotoxic)); higher = less growth inhibition
- condition_context: 0.12 µM; 72 h
Rule: normalised growth rate inhibition under 0.4 gives false (0), otherwise true (1).

Example cases with answers are listed next.
compound	target	answer_label
C[C@@H](N)c1ccc(C(=O)Nc2ccnc3[nH]ccc23)cc1	MDAMB231	true (1)
O=C(NOC[C@H](O)CO)c1ccc(F)c(F)c1Nc1ccc(I)cc1F	MDAMB231	true (1)
CN(c1ncccc1CNc1nc(Nc2ccc3c(c2)CC(=O)N3)ncc1C(F)(F)F)S(C)(=O)=O	MDAMB231	true (1)
N#CC(c1ccnc(NCCc2cccnc2)n1)c1nc2ccccc2s1 (stereo not drawn)	MDAMB231	true (1)
Cc1[nH]c(/C=C2\C(=O)Nc3ccc(S(=O)(=O)N(C)c4cccc(Cl)c4)cc32)c(C)c1C(=O)N1CCN(C)CC1	MDAMB231	true (1)

## Input Is normalised growth rate inhibition at least 0.4? Consider Cc1cc(C(C)Nc2ccccc2)c2nc(N3CCOCC3)cc(=O)n2c1 (stereo not drawn)
## Output true (1)

## Input Similarly, O=C(Nc1cccc(Nc2ncc(Br)c(NCCc3cnc[nH]3)n2)c1)N1CCCC1 ?
## Output true (1)

## Input Similarly, Cc1ccc2nc(NCCN)c3ncc(C)n3c2c1 ?
## Output true (1)

## Input Similarly, Oc1cccc(-c2nc(N3CCOCC3)c3oc4ncccc4c3n2)c1 ?
## Output true (1)

## Input Similarly, N#CCNC(=O)c1ccc(-c2ccnc(Nc3ccc(N4CCOCC4)cc3)n2)cc1 ?
## Output true (1)

## Input Similarly, Cc1nc(Nc2ncc(C(=O)Nc3c(C)cccc3Cl)s2)cc(N2CCN(CCO)CC2)n1 ?
## Output false (0)

## Input Similarly, CC[C@@H]1C(=O)N(C)c2cnc(Nc3ccc(C(=O)NC4CCN(C)CC4)cc3OC)nc2N1C1CCCC1 ?
## Output false (0)

## Input Similarly, O=C(NC1CCNCC1)c1n[nH]cc1NC(=O)c1c(Cl)cccc1Cl ?
## Output false (0)
